Subject Of Test: cathepsin B (cathepsin B-like cysteine protease) (Leishmania chagasi, UniProt Q9GQN7)
Construct: native enzyme in amastigote lysate
Sequence (Q9GQN7 entry or part of it): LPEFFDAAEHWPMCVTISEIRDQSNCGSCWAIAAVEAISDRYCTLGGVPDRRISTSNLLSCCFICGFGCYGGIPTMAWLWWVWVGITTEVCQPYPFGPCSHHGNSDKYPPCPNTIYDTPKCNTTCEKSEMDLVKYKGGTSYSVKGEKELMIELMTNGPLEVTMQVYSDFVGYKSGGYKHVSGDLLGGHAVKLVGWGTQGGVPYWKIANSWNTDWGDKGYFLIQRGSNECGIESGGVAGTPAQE
Protocol Notes: spectrofluorometric protease assay in amastigote lysate with cathepsin B-specific substrate Abz-Gly-Ile-Val-Arg-Ala-Lys(Dnp)-OH
Listed here are compounds together with their documented pIC50.
Reminder that pIC50 means the negative base-10 logarithm of the concentration expressed in mol/L.

- Compound: "CCCNC(=O)[C@H]1O[C@@H]1C(=O)N[C@H](C(=O)N1CCC[C@H]1C(=O)O)[C@@H](C)CC [CA074]"
  pIC50: 5.62

Now consider a different compound.
Q: State the measured pIC50 (cathepsin B (cathepsin B-like cysteine protease) (Leishmania chagasi, UniProt Q9GQN7)) of COc1ccc([Te]2(Cl)OC3(CCCCC3)/C2=C\Cl)cc1 (centres unmarked) [RF07]
Result: 5.35
